- System: NCI-H292 lung cancer cells
- PROTOCOL_DESCRIPTION: FDA drug screening, complete media vs cholesterol-free media without statin (TABLE 1)
- Format: cell-based, human
- DETAILS: Complete minus Cholesterol-free; […]
Counter-ions that a name gives are not always drawn.
Difference: recorded values
Respond numerically, and do not add a unit to the figure.

Past entries and their recorded results:
MOLECULE | READOUT_NAME | RECORDED_RESULT
COC(=O)N[C@H](C(=O)N1CCC[C@H]1C(=O)Nc1ccc([C@@H]2CC[C@@H](c3ccc(NC(=O)[C@@H]4CCCN4C(=O)[C@@H](NC(=O)OC)C(C)C)cc3)N2c2ccc(C(C)(C)C)cc2)cc1)C(C)C [Ombitasvir] | Difference | −0.17
COc1cc2c(cc1OC)[C@@H](Cc1cc(OC)c(OC)c(OC)c1)[N+](C)(CCCOC(=O)CC/C=C/CCC(=O)OCCC[N+]1(C)CCc3cc(OC)c(OC)cc3[C@H]1Cc1cc(OC)c(OC)c(OC)c1)CC2.[Cl-].[Cl-] (stereo partly drawn) [Mivacurium (dichloride)] | Difference | −0.21
C[N+](C)(CC(=O)Nc1ccccc1)CC(=O)Nc1ccccc1.[Cl-] [Carcainium (chloride)] | Difference | 0.01
CC(C)N(CCNC(=O)CN1CCCC1=O)C(C)C [Pramiracetam] | Difference | −0.05
CO[C@@H]1[C@H](OC(=O)/C=C/C=C/C=C/C=C/C(=O)O)CC[C@]2(CO2)[C@H]1[C@@]1(C)O[C@@H]1CC=C(C)C [Fumagillin] | Difference | −0.08

Proceed to the following item.
Lookup: Give the reported Difference for this molecule. COc1cccc2c1C(=O)c1c(O)c3c(c(O)c1C2=O)C[C@@](O)(C(C)=O)C[C@@H]3O[C@H]1C[C@H](N)[C@H](O)[C@H](C)O1 [Daunorubicin (Hydrochloride)]
Found: −0.01

###

Cholesterol-free media + simvastatin (0.04 μM): recorded values
- Tested on: NCI-H292 lung cancer cells
- PROTOCOL_DESCRIPTION: FDA drug screening, complete media vs cholesterol-free media with simvastatin (TABLE 2)
- Type: cell-based, human
- DETAILS: NCI-H292 cells, FDA drug library screen, cholesterol-free media with simvastatin 0.04 μM
Where a name gives a salt, the structure may show the parent alone.

COMPOUND | RECORDED_RESULT
COP(=S)(OC)Oc1ccc([N+](=O)[O-])c(C)c1 | 1.585
CC(C)COCC(CN(Cc1ccccc1)c1ccccc1)N1CCCC1 (stereo not shown) [Bepridil hydrochloride] | 1.312
COc1ccc2[nH]cc(CCNC(C)=O)c2c1 | 1.501

Proceed to the following item.
Lookup: Give the reported Cholesterol-free media + simvastatin (0.04 μM) for this compound. C[C@@H](c1nc(-c2ccc(C#N)cc2)cs1)[C@](O)(Cn1cncn1)c1cc(F)ccc1F [isavuconazole, reference compound]
Found: 0.5246

###

- Tested on: NCI-H292 lung cancer cells
- PROTOCOL_DESCRIPTION: FDA drug screening, complete media vs cholesterol-free media without statin (TABLE 1)
- Assay type: cell-based, human
- DETAILS: NCI-H292 cells, complete media, FDA drug library screen
Where a name gives a salt, the structure may show the parent alone.
READOUT_NAME: Complete
Respond numerically, and do not add a unit to the figure.

Past entries and their recorded results:
COMPOUND | TARGET_OR_TEST_SYSTEM | Complete
CCCCCCOC(=O)CCC(=O)CN [Hexaminolevulinate (hydrochloride)] | NCI-H292 lung cancer cells | 0.7376
C[C@]12CC[C@H](O)CC1=CC[C@@H]1[C@@H]2CC[C@]2(C)C(c3cccnc3)=CC[C@@H]12 | NCI-H292 lung cancer cells | 1.371
CC(=O)NC[C@H]1CN(c2ccc(N3CCOCC3)c(F)c2)C(=O)O1 | NCI-H292 lung cancer cells | 0.9881
CC(=O)N(CC(O)CO)c1c(I)c(C(=O)NCCO)c(I)c(C(=O)NCC(O)CO)c1I (stereo not drawn) | NCI-H292 lung cancer cells | 1.05
CC(=O)O[C@H]1C(=O)[C@@]2(C)[C@H]([C@H](OC(=O)c3ccccc3)[C@]3(O)C[C@H](OC(=O)[C@H](O)[C@@H](NC(=O)c4ccccc4)c4ccccc4)C(C)=C1C3(C)C)[C@]1(OC(C)=O)CO[C@@H]1C[C@@H]2O | NCI-H292 lung cancer cells | 0.05705

Lookup: Give the reported Complete for this compound. COc1cc(S(=O)(=O)[O-])ccc1O.[K+]
Found: 0.8811

Lookup: Give the reported Complete for this compound. CC[C@H](C)[C@H](N)C(=O)O
Found: 1.082

Lookup: Give the reported Complete for this compound. CC(C)CN(C[C@@H](OP(=O)(O)O)[C@H](Cc1ccccc1)NC(=O)O[C@H]1CCOC1)S(=O)(=O)c1ccc(N)cc1
Found: 0.7241

Lookup: Give the reported Complete for this compound. CCCCCCCCCC(=O)OCCN1CCN(CCCN2c3ccccc3Sc3ccc(C(F)(F)F)cc32)CC1 [Fluphenazine decanoate]
Found: 1.069

Lookup: Give the reported Complete for this compound. CC[C@H]1CN2CC[C@H]1C[C@@H]2[C@@H](O)c1ccnc2ccc(OC)cc12 [Hydroquinidine]
Found: 0.8815

Lookup: Give the reported Complete for this compound. CC12CCC(CC1=O)C2(C)C (stereo not drawn) [(+)-Camphor]
Found: 1.19

Lookup: Give the reported Complete for this compound. OCC(O)CO
Found: 1.096

Lookup: Give the reported Complete for this compound. CCOC(=O)n1ccn(C)c1=S
Found: 1.469

Lookup: Give the reported Complete for this compound. Cc1cc(Nc2ncc(Cl)c(Nc3ccccc3S(=O)(=O)C(C)C)n2)c(OC(C)C)cc1C1CCNCC1 [Ceritinib dihydrochloride]
Found: 0.3489

Lookup: Give the reported Complete for this compound. OC[C@H]1OC(O)[C@H](O)[C@@H](O)[C@@H]1O (stereo partly drawn)
Found: 0.3017

Lookup: Give the reported Complete for this compound. COC1=C[C@@H]2[C@@H]3Cc4ccc(OC)c(O)c4[C@]2(CCN3C)CC1=O [Sinomenine hydrochloride]
Found: 1.524

###

Difference: recorded values
- Test system: NCI-H292 lung cancer cells
- PROTOCOL_DESCRIPTION: FDA drug screening, complete media vs cholesterol-free media without statin (TABLE 1)
- Format: cell-based, human
Structures can show the parent of a compound that is named as a salt.
Respond numerically, and do not add a unit to the figure.

COMPOUND | RECORDED_RESULT
Clc1ccc2c(c1)CCc1cccnc1C2=C1CCNCC1 | −0.27
N#Cc1ccc(C2CCCc3cncn32)cc1 (stereo not shown) | 0.48
CN1[C@@H]2CC[C@H]1C[C@@H](OC(=O)C(CO)c1ccccc1)C2 (stereo partly shown) | −0.42
NC(=O)[C@@H]1C[C@]2(NC(=O)NC2=O)c2cc(F)ccc2O1 | −0.80
CO[C@H]1C[C@H](O[C@@H]2/C(C)=C/C[C@@H]3C[C@@H](C[C@]4(CC[C@H](C)[C@@H](C5CCCCC5)O4)O3)OC(=O)[C@@H]3C=C(C)/C(=N/O)[C@H]4OC/C(=C\C=C\[C@@H]2C)[C@]43O)O[C@@H](C)[C@@H]1O | −0.01
CNCC[C@H](Oc1cccc2ccccc12)c1cccs1 [Duloxetine (hydrochloride)] | 0.10
O=C(O)[C@H](O)[C@@H](O)[C@H](O)[C@H](O)CO | −0.73
OC[C@H]1O[C@@H](n2cnc3c2NC=NC[C@H]3O)C[C@@H]1O | −0.44
CC(C)CN(C[C@@H](O)[C@H](Cc1ccccc1)NC(=O)O[C@H]1CO[C@H]2OCC[C@H]21)S(=O)(=O)c1ccc(N)cc1 [Darunavir (Ethanolate)] | 0.25
CN(C)C(=O)Oc1cccc([N+](C)(C)C)c1.[Br-] [Neostigmine (Bromide)] | −0.18

Lookup: Give the reported Difference for this compound. NCCCCCC(=O)O
Found: 0.60

Lookup: Give the reported Difference for this compound. Cc1nnc(C(=O)NC(C)(C)c2nc(C(=O)NCc3ccc(F)cc3)c(O)c(=O)n2C)o1 [Raltegravir (potassium salt)]
Found: −0.41

Lookup: Give the reported Difference for this compound. NC1=NCC2c3ccccc3Cc3ccccc3N12 (stereo not shown) [Epinastine]
Found: 0.01

Lookup: Give the reported Difference for this compound. COc1cc2c(c(OC)c1OC)-c1ccc(OC)c(=O)cc1[C@@H](NC(C)=O)CC2
Found: −0.04

Lookup: Give the reported Difference for this compound. CS(=O)(=O)c1cc(F)cc2c3c(n(Cc4ccc(Cl)cc4)c12)[C@@H](CC(=O)O)CC3
Found: −0.25

Lookup: Give the reported Difference for this compound. Cl.NC(CO)(CO)CO [Trometamol (hydrochloride)]
Found: −0.23

###

- System: NCI-H292 lung cancer cells
- PROTOCOL_DESCRIPTION: FDA drug screening, complete media vs cholesterol-free media without statin (TABLE 1)
- Assay type: cell-based, human
- DETAILS: NCI-H292 cells, FDA drug library screen, complete media
Where a name gives a salt, the structure may show the parent alone.
Complete: recorded values
Respond numerically, and do not add a unit to the figure.

Past entries and their recorded results:
MOLECULE | READOUT_NAME | RECORDED_RESULT
CCOc1ccc(Cc2cc([C@@H]3O[C@H](CO)[C@@H](O)[C@H](O)[C@H]3O)ccc2Cl)cc1 [Dapagliflozin] | Complete | 0.875
[H]/N=C(\N/C(=N/[H])Nc1ccc(Cl)cc1)NC(C)C [Proguanil] | Complete | 1.059
COc1cc2c(cc1OC)[C@@H]1Cc3ccc(OC)c(OC)c3CN1CC2 [Tetrahydropalmatine] | Complete | 0.8984
Cc1oncc1C(=O)Nc1ccc(C(F)(F)F)cc1 [Leflunomide] | Complete | 0.714

Lookup: Give the reported Complete for this molecule. [H]/N=C(/N)N/C(=N/[H])NCCc1ccccc1 [Phenformin (hydrochloride)]
Found: 0.8472

Lookup: Give the reported Complete for this molecule. O=C(Nc1ccccc1)c1ccccc1O [Salicylanilide]
Found: 1.046

Lookup: Give the reported Complete for this molecule. CC[C@H]1[C@@H]2C[C@H]3[C@@H]4N(C)c5ccccc5[C@]45C[C@@H]([C@H]2[C@H]5O)N3[C@@H]1O [Ajmaline]
Found: 0.943

Lookup: Give the reported Complete for this molecule. CC(C)(C)c1nc(-c2cccc(NS(=O)(=O)c3c(F)cccc3F)c2F)c(-c2ccnc(N)n2)s1 [Dabrafenib]
Found: 0.5433
